Biological target: Paired box protein Pax-6 (Homo sapiens) (UniProt P26367)
Sequence (P26367 whole entry, looked up): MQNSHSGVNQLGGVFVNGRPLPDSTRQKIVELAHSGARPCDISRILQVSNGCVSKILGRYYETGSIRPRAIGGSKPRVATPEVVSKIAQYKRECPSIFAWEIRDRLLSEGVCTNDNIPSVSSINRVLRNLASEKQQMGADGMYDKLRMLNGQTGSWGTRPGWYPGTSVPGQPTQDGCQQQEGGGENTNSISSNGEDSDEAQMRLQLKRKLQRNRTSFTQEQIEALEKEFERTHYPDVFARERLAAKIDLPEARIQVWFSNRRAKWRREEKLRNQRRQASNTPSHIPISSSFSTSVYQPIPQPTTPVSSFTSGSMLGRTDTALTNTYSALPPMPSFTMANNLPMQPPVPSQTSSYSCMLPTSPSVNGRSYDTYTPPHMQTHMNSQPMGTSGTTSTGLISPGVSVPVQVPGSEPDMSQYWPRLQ
Test: ATG_Pax6_CIS: Attagene CIS-FACTORIAL HepG2 Assay for human Paired Box 6 (PAX6) (AID 2282956)
Details: HepG2 CIS-FACTORIAL PAX6 reporter transcription, RNA readout; actives raise or lower the signal
Protocol: ATG_CIS is a cell-based, multiplexed-readout assay that uses HepG2, a human liver cell line, with measurements taken at 24 hours after chemical dosing in a 24-well plate.ATG_Pax6_CIS is one of 52 assay component(s) measured or calculated from the ATG_CIS assay. […] This assay endpoint, ATG_Pax6_CIS, was analyzed with bidirectional fitting relative to DMSO as the negative control and baseline of activity. […]
Active and inactive are the calls of the source. The calls were made as follows: active = hit-call score of the fitted dose curve at least 0.9, where 1 is the maximum; inactive = score below 0.9.
Just give me one of these, please: true for active, false for inactive

## Input Tell me the recorded outcome of this test for C=COC(=O)C(C)(C)CCCCCC .
## Output false

## Input Hi, do you know how Cc1cc(C(C)(C)C)c(O)c(C(C)(C)C)c1 came out in this test?
## Output false

## Input Returns: the outcome recorded for CCCCc1ccc2ccccc2c1S(=O)(=O)O in this assay.
## Output false

## Input In this assay, the call recorded for CC1CNCC(C)O1 (stereo not drawn) was what?
## Output false

## Input Can you look up the reported call for O=S(=O)(O)c1ccccc1 for me?
## Output false

## Input Hi team, can someone confirm the assay call for COCN(COC)c1nc(N(COC)COC)nc(N(COC)COC)n1 ?
## Output false

## Input Test call, this molecule: O=C(NO)c1ccccc1
## Output false

## Input Lab log entry: CC1COCc2cc3c(cc21)C(C)(C)C(C)C3(C)C (stereo not drawn) — outcome as called in the assay?
## Output true

## Input Recorded test outcome, item Clc1ccc2c(Cl)ccnc2c1
## Output false

## Input What was the test verdict on CC(=O)Nc1ccc(S(N)(=O)=O)cc1 ?
## Output false

## Input // param item: CC1=NN(c2ccccc2)C(=O)C1 ; yields the recorded call
## Output false

## Input // outcome(item) with item = CC(C)C=O
## Output false

## Input Short answer needed: outcome of this test for NC(=NCCCCCCN=C(N)/N=C(\N)Nc1ccc(Cl)cc1)/N=C(\N)Nc1ccc(Cl)cc1 ?
## Output false

## Input Per the records of this test, what outcome belongs to CCCCCCCCCCCCCC[n+]1ccccc1 ?
## Output true

## Input Status in this test for N=C(N)c1ccc(OCCCCCOc2ccc(C(=N)N)cc2)cc1 ?
## Output true

## Input Assay result, entry Oc1ccc(Cc2ccccc2O)cc1 — outcome?
## Output false

## Input Outcome logged for COC(=O)CC(C(C)=O)C(=O)OC (stereo not drawn) in this assay:
## Output false

## Input Check the results log: what was the call for O=C1OC(=O)C(F)(F)C1(F)F ?
## Output false

# credit: PubChem BioAssay (EPA / NIEHS)
